Origin of the recorded values: patent US20180037631A1

# Tested on: monkey EGFR (monkey)
# Method notes: SPR Biacore
Attribute measured: Kd (nM)
Expressed in nM, but write only the number.

Q: Please indicate Kd recorded for I1-GS10-E5 pegylated, His-tagged (designed binder, 40 kDa branched PEG on the Cys of the C-terminal Cys tail, also called I1-GS10-E5 (with Peg)) MGVSDVPRDLEVVAATPTSLLISWSARLKVARYYRITYGETGGNSPVQEFTVPKNVYTATISGLKPGVDYTITVYAVTRFRDYQPISINYRTEIDKGSGSGSGSGSGSGSGSGSGSVSDVPRDLEVVAATPTSLLISWWAPVDRYQYYRITYGETGGNSPVQEFTVPRDVYTATISGLKPGVDYTITVYAVTDYKPHADGPHTYHESPISINYRTEIDKPCQHHHHHH
Ans: 5.1
